Entry source: patent EP4563573A1

# TESTED TARGET: PPARγ (Homo sapiens, UniProt P37231)
# Sequence (P37231 204-505): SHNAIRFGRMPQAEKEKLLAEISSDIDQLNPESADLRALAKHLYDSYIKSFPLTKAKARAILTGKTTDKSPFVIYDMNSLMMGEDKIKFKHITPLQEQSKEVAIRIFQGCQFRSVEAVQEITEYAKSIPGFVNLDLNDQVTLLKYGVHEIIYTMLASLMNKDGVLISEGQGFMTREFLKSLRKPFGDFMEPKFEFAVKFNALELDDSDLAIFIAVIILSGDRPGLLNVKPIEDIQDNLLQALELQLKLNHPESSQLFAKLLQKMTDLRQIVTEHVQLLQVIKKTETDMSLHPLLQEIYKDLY
# EXPERIMENTAL PROTOCOL: PPARγ agonist activity test (luciferase reporter gene)
# Assay type: cell-based
# CONDITIONS USED: relative to Rosiglitazone
MEASUREMENT NAME: PPARγ (compared with Rosiglitazone, %)

{"columns": ["COMPOUND", "TESTED TARGET", "NUMERIC VALUE"],
 "data": [
  ["COC(=O)CN1C(=O)S/C(=C\\c2ccc(O[C@H]3CC[C@H](NC(=O)NC45CC6C[C@@](C)(C4)C[C@](C)(C6)C5)CC3)cc2)C1=O [SP-D04]", "PPARγ (Homo sapiens, UniProt P37231)", 1.2],
  ["O=C1NC(=O)C(Cc2ccc(OC3CCN(C(=O)Nc4ccc(OC(F)(F)F)c(F)c4)CC3)cc2)S1 (stereo not shown) [SP-A06]", "PPARγ (Homo sapiens, UniProt P37231)", 28.4],
  ["O=C(Nc1ccc(OC(F)(F)F)c(F)c1)NC1CCC(Oc2ccc(C=C3SC(=O)NC3=O)cc2)CC1 (stereo not shown) [SP-B07]", "PPARγ (Homo sapiens, UniProt P37231)", 19.3],
  ["O=C1NC(=O)/C(=C/c2ccc(OC3CCN(C(=O)Nc4ccc(OC(F)(F)F)cc4)CC3)cc2)S1 [SP-B05]", "PPARγ (Homo sapiens, UniProt P37231)", 17.3],
  ["O=C1NC(=O)C(Cc2ccc(OC3CCN(C(=O)Nc4ccc(OC(F)(F)F)cc4)CC3)cc2)S1 (stereo not shown) [SP-A05]", "PPARγ (Homo sapiens, UniProt P37231)", 14.3],
  ["CCOC(=O)CC(=O)Nc1ccc(O[C@H]2CC[C@H](NC(=O)Nc3ccc(OC(F)(F)F)c(F)c3)CC2)cc1 [SP-C01s]", "PPARγ (Homo sapiens, UniProt P37231)", 0.3],
  ["CCC(C)C(=O)Nc1ccc(OC2CCCC(NC(=O)NC34CC5CC(C)(CC(C)(C5)C3)C4)C2)cc1 (stereo not shown) [SP-C01n]", "PPARγ (Homo sapiens, UniProt P37231)", 0.7]
]}

----------
# TESTED TARGET: murine sEH (MsEH) (Mus musculus)
# Sequence (P34914 whole entry): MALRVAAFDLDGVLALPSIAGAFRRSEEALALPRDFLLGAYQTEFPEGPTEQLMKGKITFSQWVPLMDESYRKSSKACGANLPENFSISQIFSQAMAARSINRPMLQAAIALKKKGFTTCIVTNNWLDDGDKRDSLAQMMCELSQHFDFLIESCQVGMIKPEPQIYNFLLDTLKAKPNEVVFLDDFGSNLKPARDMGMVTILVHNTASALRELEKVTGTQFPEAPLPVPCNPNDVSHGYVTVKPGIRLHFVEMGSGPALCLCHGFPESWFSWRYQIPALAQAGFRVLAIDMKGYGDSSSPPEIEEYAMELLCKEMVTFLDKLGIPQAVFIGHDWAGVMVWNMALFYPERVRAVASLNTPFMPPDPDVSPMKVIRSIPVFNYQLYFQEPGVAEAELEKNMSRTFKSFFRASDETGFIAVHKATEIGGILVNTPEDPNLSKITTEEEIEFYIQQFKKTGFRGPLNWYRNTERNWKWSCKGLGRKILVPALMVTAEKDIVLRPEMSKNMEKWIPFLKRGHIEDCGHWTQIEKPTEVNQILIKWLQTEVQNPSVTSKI
# CONDITIONS USED: read-out: MsEH IC50, PHOME substrate
yes if IC50 is below 1 nM. no if not; exact matches included in no.

{"columns": ["COMPOUND", "TESTED TARGET", "ASSIGNED LABEL"],
 "data": [
  ["COC(=O)CN1C(=O)S/C(=C\\c2ccc(O[C@H]3CC[C@H](NC(=O)NC45CC6C[C@@](C)(C4)C[C@](C)(C6)C5)CC3)cc2)C1=O [SP-D04]", "murine sEH (MsEH) (Mus musculus)", "no"],
  ["CCC(=O)Nc1ccc(OC2CCCC(NC(=O)NC34CC5CC(C)(CC(C)(C5)C3)C4)C2)cc1 (stereo not drawn) [SP-C01m]", "murine sEH (MsEH) (Mus musculus)", "no"],
  ["O=C1NC(=O)C(Cc2ccc(OC3CCN(C(=O)Nc4ccc(OC(F)(F)F)cc4)CC3)cc2)S1 (stereo not drawn) [SP-A05]", "murine sEH (MsEH) (Mus musculus)", "yes"],
  ["O=C1NC(=O)C(Cc2ccc(OC3CCN(C(=O)Nc4ccc(OC(F)(F)F)c(F)c4)CC3)cc2)S1 (stereo not drawn) [SP-A06]", "murine sEH (MsEH) (Mus musculus)", "yes"],
  ["COC(=O)CN1C(=O)S/C(=C\\c2ccc(O[C@H]3CC[C@H](NC(=O)Nc4ccc(OC(F)(F)F)cc4)CC3)cc2)C1=O [SP-D01]", "murine sEH (MsEH) (Mus musculus)", "no"],
  ["CCC(C)C(=O)Nc1ccc(OC2CCCC(NC(=O)NC34CC5CC(C)(CC(C)(C5)C3)C4)C2)cc1 (stereo not drawn) [SP-C01n]", "murine sEH (MsEH) (Mus musculus)", "no"]
]}

----------
# EXPERIMENTAL PROTOCOL: Pharmacokinetics after intravenous and oral administration
# CONDITIONS USED: rat, in vivo, iv, 10 mg/kg

{"columns": ["MOLECULE", "AUC(0-t) at 8 h / µM·h"],
 "data": [
  ["O=C(Nc1ccc(OC(F)(F)F)c(F)c1)NC1CCC(Oc2ccc(C=C3SC(=O)NC3=O)cc2)CC1 (stereo not shown)", 14.1]
]}

----------
# TESTED TARGET: recombinant human sEH (HsEH) (Homo sapiens, UniProt P34913)
# Sequence (P34913 whole entry): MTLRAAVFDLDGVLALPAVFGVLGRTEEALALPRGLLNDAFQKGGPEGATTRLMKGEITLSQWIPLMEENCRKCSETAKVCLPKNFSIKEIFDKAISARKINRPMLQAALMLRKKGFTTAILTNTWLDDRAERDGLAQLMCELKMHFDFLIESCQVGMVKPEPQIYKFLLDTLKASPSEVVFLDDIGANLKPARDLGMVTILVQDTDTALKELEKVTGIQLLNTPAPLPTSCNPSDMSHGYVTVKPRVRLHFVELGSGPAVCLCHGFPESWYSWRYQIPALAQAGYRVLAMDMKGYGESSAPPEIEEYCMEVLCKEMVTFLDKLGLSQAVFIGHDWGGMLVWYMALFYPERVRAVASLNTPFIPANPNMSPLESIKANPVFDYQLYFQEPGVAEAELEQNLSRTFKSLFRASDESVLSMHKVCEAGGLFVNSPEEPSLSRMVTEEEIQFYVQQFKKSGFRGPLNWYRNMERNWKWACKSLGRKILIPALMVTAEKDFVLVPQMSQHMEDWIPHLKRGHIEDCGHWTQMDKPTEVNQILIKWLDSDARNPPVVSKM
# CONDITIONS USED: read-out: HsEH IC50; recombinant human sEH, PHOME substrate
Response field label takes yes when IC50 is strictly below 1 nM and no in all other cases.

{"columns": ["COMPOUND", "TESTED TARGET", "ASSIGNED LABEL"],
 "data": [
  ["CCC(C)C(=O)Nc1ccc(OC2CCCC(NC(=O)NC34CC5CC(C)(CC(C)(C5)C3)C4)C2)cc1 (stereo not drawn) [SP-C01n]", "recombinant human sEH (HsEH) (Homo sapiens, UniProt P34913)", "yes"],
  ["COC(=O)CN1C(=O)S/C(=C\\c2ccc(O[C@H]3CC[C@H](NC(=O)NC45CC6C[C@@](C)(C4)C[C@](C)(C6)C5)CC3)cc2)C1=O", "recombinant human sEH (HsEH) (Homo sapiens, UniProt P34913)", "no"],
  ["COC(=O)CN1C(=O)S/C(=C\\c2ccc(O[C@H]3CC[C@H](NC(=O)Nc4ccc(OC(F)(F)F)cc4)CC3)cc2)C1=O", "recombinant human sEH (HsEH) (Homo sapiens, UniProt P34913)", "no"],
  ["O=C1NC(=O)C(Cc2ccc(OC3CCN(C(=O)Nc4ccc(OC(F)(F)F)c(F)c4)CC3)cc2)S1 (stereo not drawn)", "recombinant human sEH (HsEH) (Homo sapiens, UniProt P34913)", "no"],
  ["O=C1NC(=O)C(Cc2ccc(OC3CCN(C(=O)Nc4ccc(OC(F)(F)F)cc4)CC3)cc2)S1 (stereo not drawn)", "recombinant human sEH (HsEH) (Homo sapiens, UniProt P34913)", "yes"],
  ["CCC(=O)Nc1ccc(OC2CCCC(NC(=O)NC34CC5CC(C)(CC(C)(C5)C3)C4)C2)cc1 (stereo not drawn) [SP-C01m]", "recombinant human sEH (HsEH) (Homo sapiens, UniProt P34913)", "yes"]
]}
